study-target: sigma receptor (Cavia porcellus)
Construct: A membrane preparation as a sigma receptor obtained from the whole brain of guinea pigs
Sequence (Q60492 whole entry): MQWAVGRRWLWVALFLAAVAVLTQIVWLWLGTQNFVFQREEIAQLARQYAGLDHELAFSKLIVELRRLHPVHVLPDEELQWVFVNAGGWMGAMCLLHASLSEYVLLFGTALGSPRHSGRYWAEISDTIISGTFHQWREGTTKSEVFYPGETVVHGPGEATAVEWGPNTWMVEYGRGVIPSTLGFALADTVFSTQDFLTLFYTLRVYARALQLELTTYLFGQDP
protocol-text: Evaluation of affinity to sigma receptors ([3H](+)-pentazocine receptor binding experiment)
study-conditions: membrane preparation from whole brain of guinea pigs, 25° C., 60 minutes, Dixon plot
Listed here: items and their measured pKi.
Remember the convention: pKi equals -log10 of concentration in molar.

Solved cases below.
>  <compound-string>
c1ccc(CCC2CCN(C3CCCCC3)CC2)cc1

>  <study-target>
sigma receptor (Cavia porcellus)

>  <pKi>
8.41

$$$$
>  <compound-string>
c1ccc(CN2CCN(C3CCCCC3)CC2)cc1

>  <study-target>
sigma receptor (Cavia porcellus)

>  <pKi>
8.19

$$$$
>  <compound-string>
c1ccc(CC2CCN(C3CCCCC3)CC2)cc1

>  <study-target>
sigma receptor (Cavia porcellus)

>  <pKi>
8.15

$$$$

"c1ccc(CCCN2CCN(C3CCCCC3)CC2)cc1" yielded pKi of 8.21

"c1ccc(CCCC2CCN(C3CCCCC3)CC2)cc1" yielded pKi of 8.68

"c1ccc(CCN2CCN(C3CCCCC3)CC2)cc1" yielded pKi of 8.22

Origin of the recorded values: patent US20110263862A1
